# tested_system: UniProt:Q96P20
# method_summary: THP-1 cells pyroptosis assay (LPS + nigericin, resazurin read-out)
# Type: cell-based
# Design: Seed THP-1 cells (25,000 cells/well) containing 1.0 μg/ml LPS; host or cells: THP-1 cells
# condition_set: NLRP3 inhibitory activity, 1 μg/ml LPS, 5 μM nigericin
Where a name gives a salt, the structure may show the parent alone.
measure_name: IC50

[[record]]
compound = "CC(C)(O)c1coc(S(=O)(=O)NC(=O)Cc2cc(Cl)cc(OC(F)(F)F)c2)c1"
measure_name = "IC50"
observed_result = "1000 to 5000 nM"

[[record]]
compound = "CC(C)c1cc(C#N)cc(C(C)C)c1NC(=O)NS(=O)(=O)c1cnn(C(C)C)c1"
measure_name = "IC50"
observed_result = "1000 to 5000 nM"

[[record]]
compound = "CC(C)c1cc(F)cc2c1C(C(=O)NS(=O)(=O)c1cnn(C3CC3)c1)CC2(C)C (stereo not shown)"
measure_name = "IC50"
observed_result = "5000 to 10000 nM"

[[record]]
compound = "CC(C)c1cc(C#N)cc(C(C)C)c1NC(=O)NS(=O)(=O)c1cc(C(C)(C)O)n(C)n1"
measure_name = "IC50"
observed_result = "500 to 1000 nM"

[[record]]
compound = "COc1cc(-c2cc(F)cc(C(C)C)c2CCC(=O)NS(=O)(=O)c2ccc(C(C)(C)O)cc2C)ccn1"
measure_name = "IC50"
observed_result = "1000 to 5000 nM"

[[record]]
compound = "CC(C)n1cc(F)c(S(=O)(=O)NC(=O)Nc2c3c(cc4c2CCC4)CCC3)n1"
measure_name = "IC50"
observed_result = "< 250 nM"

[[record]]
compound = "CC(C)c1cc(C#N)cc(C(C)C)c1NC(=O)NS(=O)(=O)c1ccn(C(C)C)n1"
measure_name = "IC50"
observed_result = "1000 to 5000 nM"

[[record]]
compound = "O=C(Nc1c2c(cc3c1CCC3)CCC2)NS(=O)(=O)c1ccn(CC(F)(F)F)n1"
measure_name = "IC50"
observed_result = "< 250 nM"

[[record]]
compound = "COC1(c2cc(S(=O)(=O)NC(=O)Nc3c4c(cc5c3CCC5)CCC4)nn2C)CCC1"
measure_name = "IC50"
observed_result = "< 250 nM"

[[record]]
compound = "O=C(Nc1c2c(cc3c1CCO3)CCC2)NS(=O)(=O)c1ccn(C2CC2)n1"
measure_name = "IC50"
observed_result = "< 250 nM"

[[record]]
compound = "CC(C)c1cc(F)cc(C(C)C)c1CC(=O)NS(=O)(=O)c1ccc(CN(C)C)cc1 [Example 33, 2,2,2-trifluoroacetate salt]"
measure_name = "IC50"
observed_result = "1000 to 5000 nM"

[[record]]
compound = "CCOC(=O)c1cc(S(=O)(=O)NC(=O)Nc2c3c(cc4c2CCC4)CCC3)nn1C"
measure_name = "IC50"
observed_result = "500 to 1000 nM"

[[record]]
compound = "CC(C)n1ccc(S(=N)(=O)NC(=O)Cc2c3c(cc4c2CCC4)CCC3)n1 (stereo not shown)"
measure_name = "IC50"
observed_result = "1000 to 5000 nM"

[[record]]
compound = "O=C(Nc1c2c(cc3c1CCC3)CCC2)NS(=O)(=O)c1ccn(C2CCC2)n1"
measure_name = "IC50"
observed_result = "< 250 nM"

[[record]]
compound = "CC(C)(CN1CCC1)n1ccc(S(=O)(=O)NC(=O)Nc2c3c(cc4c2CCC4)CCC3)n1"
measure_name = "IC50"
observed_result = "< 250 nM"

[[record]]
compound = "COC(C)(C)c1cc(S(=O)(=O)NC(=O)Nc2c(C(C)C)cc(F)cc2C(C)C)nn1C"
measure_name = "IC50"
observed_result = "250 to 500 nM"

[[record]]
compound = "COc1cc(-c2cc(F)cc(C(C)C)c2CCC(=O)NS(=O)(=O)c2cc(C(C)(C)O)cs2)ccn1"
measure_name = "IC50"
observed_result = "5000 to 10000 nM"

[[record]]
compound = "CC(C)n1ccc(S(=O)(=O)NC(=O)Nc2c3c(cc4c2CCC4O)CCC3)n1 (stereo not shown)"
measure_name = "IC50"
observed_result = "5000 to 10000 nM"

[[record]]
compound = "CC(C)c1cc(-c2ccccc2)cc(C(C)C)c1NC(=O)NS(=O)(=O)c1ccn(C(C)C)n1"
measure_name = "IC50"
observed_result = "5000 to 10000 nM"

[[record]]
compound = "COC(C)(C)c1cc(S(=O)(=O)NC(=O)Nc2c(C(C)C)cc(Cl)cc2C(C)C)nn1C"
measure_name = "IC50"
observed_result = "< 250 nM"

[[record]]
compound = "CC(C)(O)c1coc(S(=O)(=O)NC(=O)Cc2cc(Cl)cc(C(F)(F)F)c2)c1"
measure_name = "IC50"
observed_result = "5000 to 10000 nM"

[[record]]
compound = "Cc1cc(C(C)(C)O)ccc1S(=O)(=O)NC(=O)Cc1c(C(C)C)cc(F)cc1C(C)C [Example 2, potassium salt]"
measure_name = "IC50"
observed_result = "250 to 500 nM"

[[record]]
compound = "CC(C)c1cc(F)cc2c1C(C(=O)NS(=O)(=O)c1ccn(C(C)C)n1)CC2(C)C (stereo not shown)"
measure_name = "IC50"
observed_result = "5000 to 10000 nM"

[[record]]
compound = "CC(C)n1ncc(S(=O)(=O)NC(=O)Nc2c3c(cc4c2CCC4)CCC3)n1"
measure_name = "IC50"
observed_result = "< 250 nM"

[[record]]
compound = "CC(C)c1cc(F)cc(C(C)C)c1NC(=O)NS(=O)(=O)c1ccn(C(C)C)n1 [Example 77, sodium salt]"
measure_name = "IC50"
observed_result = "1000 to 5000 nM"

[[record]]
compound = "COC1(c2cc(S(=O)(=O)NC(=O)Nc3c4c(cc5c3CCC5)CCC4)nn2C)CCCC1"
measure_name = "IC50"
observed_result = "< 250 nM"

[[record]]
compound = "CC(C)c1cc(F)cc(C(C)C)c1CC(=O)NS(=O)(=O)c1cc(C(C)(C)O)n(C(C)C)n1"
measure_name = "IC50"
observed_result = "5000 to 10000 nM"

[[record]]
compound = "CC(O)c1cc(S(=O)(=O)NC(=O)Nc2c3c(cc4c2CCC4)CCC3)nn1C(C)C (stereo not shown)"
measure_name = "IC50"
observed_result = "< 250 nM"

[[record]]
compound = "Cc1cc(C(C)(C)O)ccc1S(=O)(=O)NC(=O)C1CC(C)(C)c2cc(F)cc(C(C)C)c21 (stereo not shown)"
measure_name = "IC50"
observed_result = "5000 to 10000 nM"

[[record]]
compound = "COc1cc(-c2cc(F)cc(C(C)C)c2CCC(=O)NS(=O)(=O)c2ccc(CN(C)C)cc2)ccn1 [Example 4, potassium salt]"
measure_name = "IC50"
observed_result = "5000 to 10000 nM"

[[record]]
compound = "CC(C)c1cc(Cl)c2c(c1NC(=O)NS(=O)(=O)c1ccn(C(C)C)n1)CCC2"
measure_name = "IC50"
observed_result = "250 to 500 nM"


----------
# tested_system: NLRP3 (Homo sapiens, UniProt Q96P20)
# Sequence (Q96P20 whole entry): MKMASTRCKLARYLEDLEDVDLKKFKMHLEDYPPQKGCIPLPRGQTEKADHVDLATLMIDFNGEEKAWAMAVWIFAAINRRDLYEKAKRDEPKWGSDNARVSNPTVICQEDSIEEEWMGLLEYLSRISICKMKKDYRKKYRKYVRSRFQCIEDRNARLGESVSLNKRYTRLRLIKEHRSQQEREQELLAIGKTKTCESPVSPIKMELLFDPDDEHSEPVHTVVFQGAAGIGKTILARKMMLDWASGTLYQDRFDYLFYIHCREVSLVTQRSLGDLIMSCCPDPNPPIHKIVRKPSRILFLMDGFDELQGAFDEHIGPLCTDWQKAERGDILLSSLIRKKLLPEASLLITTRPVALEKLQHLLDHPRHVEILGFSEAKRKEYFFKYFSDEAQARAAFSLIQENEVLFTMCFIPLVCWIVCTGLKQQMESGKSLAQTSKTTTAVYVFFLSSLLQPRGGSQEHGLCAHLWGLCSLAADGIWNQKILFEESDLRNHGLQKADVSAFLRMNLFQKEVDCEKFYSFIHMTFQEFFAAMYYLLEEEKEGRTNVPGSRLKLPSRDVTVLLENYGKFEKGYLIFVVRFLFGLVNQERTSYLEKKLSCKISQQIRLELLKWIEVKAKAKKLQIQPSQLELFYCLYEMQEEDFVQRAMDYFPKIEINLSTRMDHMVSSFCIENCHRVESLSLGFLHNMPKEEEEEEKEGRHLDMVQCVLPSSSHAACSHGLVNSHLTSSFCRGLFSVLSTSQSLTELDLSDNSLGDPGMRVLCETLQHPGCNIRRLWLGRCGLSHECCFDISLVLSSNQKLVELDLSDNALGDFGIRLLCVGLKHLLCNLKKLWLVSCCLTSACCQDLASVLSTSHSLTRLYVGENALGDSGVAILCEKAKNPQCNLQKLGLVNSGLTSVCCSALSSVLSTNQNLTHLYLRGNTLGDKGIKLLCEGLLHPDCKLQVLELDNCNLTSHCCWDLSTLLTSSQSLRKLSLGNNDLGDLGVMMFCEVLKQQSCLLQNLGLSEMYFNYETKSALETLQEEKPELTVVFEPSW
# method_summary: THP-1 cells pyroptosis assay (LPS + nigericin, resazurin read-out)
# Assay type: cell-based
# Design: Seed THP-1 cells (25,000 cells/well) containing 1.0 μg/ml LPS; host or cells: THP-1 cells
# condition_set: NLRP3 inhibitory activity, 1 μg/ml LPS, 5 μM nigericin
Where a name gives a salt, the structure may show the parent alone.
measure_name: IC50

[[record]]
compound = "Cc1cc(Br)cc(CC(=O)NS(=O)(=O)c2cc(C(C)(C)O)co2)c1"
observed_result = "1000 to 5000 nM"

[[record]]
compound = "CCn1cc(S(=O)(=O)NC(=O)Nc2c3c(cc4c2CCC4)CCC3)nn1 [Example 19, potassium salt]"
observed_result = "250 to 500 nM"

[[record]]
compound = "C#CCCC1(CCn2ccc(S(=O)(=O)NC(=O)Nc3c4c(cc5c3CCC5)CCC4)n2)N=N1 [Example 16, potassium salt]"
observed_result = "< 250 nM"

[[record]]
compound = "CC(C)c1cc(F)cc(C(C)C)c1CC(=O)NS(=O)(=O)c1ncc(C(C)(C)O)s1"
observed_result = "1000 to 5000 nM"


----------
# tested_system: NLRP3 (Homo sapiens, UniProt Q96P20)
# method_summary: Human whole blood IL-1β release assay (LPS + nigericin, AlphaLisa)
# Assay type: cell-based
# Design: Human whole blood in Li-heparin tubes was obtained from healthy donors; from tissue; host or cells: human whole blood from healthy donors
# condition_set: NLRP3 inhibitory activity, 1 μg/ml LPS, 10 μM nigericin, read-out: HWB IC50
Counter-ions that a name gives are not always drawn.
The compounds listed here are annotated with their IC50.
measure_name: IC50

[[record]]
compound = "CC(C)n1nc(S(=O)(=O)NC(=O)Nc2c3c(cc4c2CCC4)CCC3)cc1F [Example 62, sodium salt]"
measure_name = "IC50"
observed_result = "> 10 µM"

[[record]]
compound = "CC(C)n1cc(F)c(S(=O)(=O)NC(=O)Nc2c3c(cc4c2CCC4)CCC3)n1"
measure_name = "IC50"
observed_result = "0.5 to 1 µM"

[[record]]
compound = "CC(C)n1nc(S(=O)(=O)NC(=O)Nc2c3c(cc4c2CCC4)CCC3)cc1C(C)(C)O"
measure_name = "IC50"
observed_result = "0.5 to 1 µM"

[[record]]
compound = "COC1(c2cc(S(=O)(=O)NC(=O)Nc3c4c(cc5c3CCC5)CCC4)nn2C)CCCC1"
measure_name = "IC50"
observed_result = "0.5 to 1 µM"

[[record]]
compound = "CN(C)CC1(n2ccc(S(=O)(=O)NC(=O)Nc3c4c(cc5c3CCC5)CCC4)n2)CCC1"
measure_name = "IC50"
observed_result = "< 0.25 µM"

[[record]]
compound = "CCn1cc(S(=O)(=O)NC(=O)Nc2c3c(cc4c2CCC4)CCC3)nn1 [Example 19, potassium salt]"
measure_name = "IC50"
observed_result = "0.5 to 1 µM"

[[record]]
compound = "O=C(Nc1c2c(cc3c1CCO3)CCC2)NS(=O)(=O)c1ccn(C2CC2)n1"
measure_name = "IC50"
observed_result = "1 to 5 µM"

[[record]]
compound = "CC(C)n1ccc(S(=O)(=O)NC(=O)Nc2c3c(c(Cl)c4c2CCC4)CCC3)n1"
measure_name = "IC50"
observed_result = "5 to 10 µM"

